system: M14 melanoma; experiment: NCI tumour cell line growth inhibition, 48 h
Task for the reader: assign each of the following molecules its reported TGI.

CC1(C)C/C(=N/O)c2c(nc3ccc4ccccc4c3c2-c2ccc(Cl)cc2)C1 :: > 100 µM
COc1ccc(NC(=O)COCCOCCNC[C@@H]2C(=O)O[C@H]3[C@H]2CC/C(COC(=O)OC/C2=C/CC[C@@]4(C)O[C@H]4[C@H]4OC(=O)[C@@H](CN(C)C)[C@@H]4CC2)=C\CC[C@@]2(C)O[C@@H]32)c(O)c1C(N)=O :: 15.5 µM
COc1ccc(N2C(=O)C3c4[nH]c5ccccc5c4C4CC(C)CC(C)C4C3C2=O)cc1 (centres undefined) :: > 100 µM
S=c1ssc(Oc2ccccc2)c1Cl :: 43.2 µM
Cn1ccc2c(C(=O)c3ccccc3)cccc2c1=O :: > 100 µM

Hi team, please reply with TGI for each item in this list.
1. Oc1ccccc1C=Nc1nc(SCc2ccccc2)nc2[nH]ncc12
2. O=C1C=CC2(O)OCCN(CCO)C2=C1 (centres undefined) (tested in a mixture with another compound)
3. O=c1[nH]c(=O)c2cc(C3CC(O)C(CO)O3)ccc2[nH]1 (centres undefined)
4. COc1cc(/C=C/C(=O)c2c(C)nc3ccccc3c2/C=C/c2ccc(C)cc2)cc(OC)c1OC
5. Cc1cc2nc(N3C(=O)/C(=C/c4ccccc4S)N=C3c3ccccc3)sc2cc1C
6. COC(=O)NC12CC3CC(CC(F)(C3)C1)C2
7. NCCN.NCCN.O=C([O-])CCl.O=C([O-])CCl.[Co+3].[O-][Cl+3]([O-])([O-])[O-]
8. COc1ccccc1N1CCN(CCc2c[nH]c3cc4c(cc23)OCO4)CC1

1. > 100 µM
2. > 100 µM
3. > 100 µM
4. 5.03 µM
5. > 100 µM
6. > 100 µM
7. > 100 µM
8. 40.7 µM

Field: TGI. Fill in for each record below.
1. COc1cc(-n2cc(-c3ccc(Cl)cc3)nc2SCc2cccc(C#N)c2)cc(OC)c1OC
2. CC(=O)N(C(C)=O)n1c(-c2ccccc2)n[nH]c1=O
3. CN1C(=O)C(CC(=O)O)NC1=S (centres undefined)
4. COc1cccc2c1C(=O)c1c(O)c3c(c(O)c1C2=O)C[C@@](O)(C(=O)CO)C[C@@H]3O[C@H]1C[C@H](N)[C@@H](O)[C@H](C)O1

> 100 µM
> 100 µM
> 100 µM
1.16 µM

Give one value of TGI per listed molecule.
1. COc1ccc(N2C(=O)C(C)SC2c2cc3cc(Br)ccc3nc2Cl)cc1 (centres undefined)
2. Cc1ccc(N=Nc2ccc(N)cc2C)c(S(N)(=O)=O)c1
3. CCN1C(=O)N(c2ccccc2)C2NC(=S)N(/N=C/C=C/c3ccccc3)C21 (centres undefined)
4. C/C=C1/CCC2c3[nH]c4ccccc4c3CCN2C1 (centres undefined)
5. O=C(O)CNS(=O)(=O)c1ccc(NC(=O)CI)cc1

["> 100 µM", "> 100 µM", "> 100 µM", "33.2 µM", "44.3 µM"]

Quick one: give me TGI for each item below, same order please.
1. C=C1C(=O)O[C@H]2[C@H](OC(C)=O)[C@@H](C)CCC/C(C)=C/CC[C@@]3(C)O[C@@H]3C[C@@H]12
2. COc1ccc(S(=O)(=O)Nc2cc(/C=C\c3cc(OC)c(OC)c(OC)c3)ccc2OC)cc1
3. C/C(=N\NC(=O)c1ccncc1)c1ccccc1F
4. COC(=O)CN1SC2(SC13C(C)(C)C(=O)C3(C)C)C(C)(C)C(=O)C2(C)C
5. COc1cccc(N2C(=O)/C(=C\c3ccccc3)SC2c2cc(OC)c(OC)c(OC)c2)c1 (centres undefined)
6. O=C1C2C(c3ccccc3)NC(c3ccccc3)C1C(c1ccccc1)NC2c1ccccc1 (centres undefined)

1: > 40.4 µM; 2: > 100 µM; 3: > 10 µM; 4: > 100 µM; 5: > 100 µM; 6: > 100 µM

For each of the molecules below, state TGI.
1. CC(C)c1c(O)ccc2c1CCC1C(C)(C)CCCC21C (centres undefined)
2. COc1cccc2c1/c(=C/c1ccc(N(C)C)cc1)c1cc(-c3ccccc3)[n+](C)n12
3. S=C1CSc2c(ccc3ccccc23)N1
4. CC1OC(OC2C(OC(=O)[C@@H]3CC(C)(C)C[C@@H]4C5=CC[C@@H]6[C@@]7(C)C[C@H](O)[C@H](OC8OC(CO)C(O)C(O)C8O)[C@@](C)(CO)C7[C@H](O)C[C@@]6(C)[C@]5(C)C[C@@H](O)[C@H]43)OCC(O)C2O)C(O)C(O)C1O (some centres undefined)

1. 30.2 µM
2. 1.08 µM
3. > 100 µM
4. > 15 µM

Fill in TGI for each of the 7 molecules listed.
1. COC(=O)[C@]12CC=C3O[C@@H]4OC5(CCCCC5)O[C@@H]4C3[C@@H]1C(=O)CCC2=O (some centres undefined)
2. NC1CC(Cl)c2c(Cl)sc(Cl)c21 (centres undefined)
3. Nc1c([N+](=O)[O-])cc2c3c(cccc13)CC2
4. Cc1ccc([N+](=O)[O-])cc1NC(=O)c1cccc([N+](=O)[O-])c1O
5. O=c1nc(NC(c2ccccc2)(c2ccccc2)c2ccccc2)ccn1CCNCCn1ccc(NC(c2ccccc2)(c2ccccc2)c2ccccc2)nc1=O
6. COc1cccc(-c2nc3ccccc3c(=O)[nH]2)c1OC
7. C=CCN1C(=O)/C(=C/c2ccc(C)cc2)NC1=S

1: > 100 µM; 2: > 100 µM; 3: > 100 µM; 4: 56.7 µM; 5: 69.3 µM; 6: > 100 µM; 7: > 100 µM

Source: PubChem BioAssay (NCI)
